Target: recombinant BChE (hBChE, E.C. 3.1.1.8) (Homo sapiens, UniProt P06276)
Construct: purchased Sigma-Aldrich, Prague, Czech Republic
Sequence (P06276 29-602): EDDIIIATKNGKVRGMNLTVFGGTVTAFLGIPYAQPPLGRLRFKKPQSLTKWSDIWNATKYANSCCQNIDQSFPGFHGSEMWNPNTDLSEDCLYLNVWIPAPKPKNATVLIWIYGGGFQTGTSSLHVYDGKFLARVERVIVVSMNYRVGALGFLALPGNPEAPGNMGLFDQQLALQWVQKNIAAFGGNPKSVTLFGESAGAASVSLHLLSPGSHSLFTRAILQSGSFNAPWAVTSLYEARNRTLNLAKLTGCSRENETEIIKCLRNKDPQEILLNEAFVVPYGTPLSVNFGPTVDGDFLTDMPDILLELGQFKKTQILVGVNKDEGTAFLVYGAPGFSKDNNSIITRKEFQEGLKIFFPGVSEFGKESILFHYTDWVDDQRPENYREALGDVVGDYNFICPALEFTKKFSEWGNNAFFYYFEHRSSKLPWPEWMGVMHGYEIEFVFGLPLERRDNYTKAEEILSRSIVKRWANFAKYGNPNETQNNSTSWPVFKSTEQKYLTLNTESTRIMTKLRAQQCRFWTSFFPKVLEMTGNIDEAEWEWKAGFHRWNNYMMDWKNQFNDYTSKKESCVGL
Assay: biochemical
Assay type: biochemical
Conditions: tested at 10 μM compound concentration; read-out: % inhibition of hBChE ± SEM
VALUE_TYPE: inhibition at 10 µM (%)
# unit: % | format: bare number

I'd like to know its inhibition at 10 µM. The compound in question is C=CCN(CCCc1ccccc1)Cc1cccc(OCc2ccccc2)c1
76

Field entry: Clc1ccc(CCNCc2ccc(OCc3ccccc3)cc2)cc1
85

Field entry: Clc1cccc(NCc2cccc(OCc3ccccc3)c2)c1
7.5

Field entry: CCN(Cc1ccc(OCc2ccccc2)cc1)C(C)CCc1ccccc1 (stereo not drawn)
87

Field entry: c1ccc(COc2ccc(CNCCc3ccccn3)cc2)cc1
23

Below: the item to evaluate.
I'd like to know its inhibition at 10 µM. The compound in question is c1ccc(CCCNCc2cccc(OCc3ccccc3)c2)cc1
89
